target: proton pump (H+/K+-ATPase) (Sus scrofa); construct: Gastric vesicles were prepared from hog stomach via centrifugal separation; assay: Measurement of inhibitory effects on proton pump (H+/K+-ATPase) activities; details: hog gastric vesicles, K+-specific H+/K+-ATPase activity, Tris-HCl buffer pH 7.4, 37° C. for 40 minutes, malachite green Pi readout
pIC50: −log10 of the molar value. Counter-ions that a name gives are not always drawn.
Measure Name: pIC50

The following molecules have reported results that may help.
- Molecule: "CNCc1cn(S(=O)(=O)c2ccc(OC)cc2)c2cc(Cc3ccc(C)cc3Cl)ccc12 [Example 307]"
  Measure Name: "pIC50"
  Test Result: 5.92
- Molecule: "CNCc1cn(S(=O)(=O)c2cccc(OC(F)F)c2)c2cc(-c3ccnc(F)c3)ccc12 [Example 262, hydrochloride]"
  Measure Name: "pIC50"
  Test Result: 5.07
- Molecule: "CNCc1cn(S(=O)(=O)c2cccc(F)c2)c2cc(Cc3ccc(C)c(F)c3F)ccc12 [Example 287]"
  Measure Name: "pIC50"
  Test Result: 5.78
- Molecule: "CNCc1cn(S(=O)(=O)c2cccnc2)c2cc(Nc3ccnc(OC)c3Cl)ccc12 [Example 130, hydrochloride]"
  Measure Name: "pIC50"
  Test Result: 4.70
- Molecule: "CNCc1cn(S(=O)(=O)c2cccnc2)c2cc(Cc3ccc(OC(F)(F)F)cc3OC)ccc12 [Example 281, hydrochloride]"
  Measure Name: "pIC50"
  Test Result: 5.73

a = CCOc1ccc(Nc2ccc3c(CNC)cn(S(=O)(=O)c4cccnc4)c3c2)c(F)c1F [Example 71, hydrochloride]
b = CNCc1cn(S(=O)(=O)c2cccnc2)c2cc(Nc3c(C)cc(Cl)cc3[N+](=O)[O-])ccc12 [Example 94, hydrochloride]
c = CNCc1cn(S(=O)(=O)c2ccc(OC(F)(F)F)cc2)c2cc(Nc3ccc(C)cc3F)ccc12 [Example 206, hydrochloride]
d = CNCc1cn(S(=O)(=O)c2cccc(OC)c2)c2cc(Nc3ccc(C)c(F)c3F)ccc12 [Example 170, hydrochloride]
[ask] Let's sort these by pIC50, smallest first. Go ahead? Respond with an ordered listing of the labels, as requested.
[reply] c, b, a, d
(c: 5.59, b: 6.11, a: 6.37, d: 6.59)

I = CNCc1cn(S(=O)(=O)c2cncc(F)c2)c2cc(Nc3ccc(C)cc3F)ccc12 [Example 210, hydrochloride]
II = CNCc1cn(S(=O)(=O)c2cccc(OC)c2)c2cc(Nc3ccc(OC)cc3F)ccc12 [Example 167, hydrochloride]
III = CNCc1cn(S(=O)(=O)c2cccnc2)c2cc(Nc3cccnc3C(F)(F)F)ccc12 [Example 109, hydrochloride]
IV = CNCc1cn(S(=O)(=O)c2cccnc2)c2cc(Cc3ccc(OC(F)(F)F)cc3)ccc12 [Example 271, hydrochloride]
[ask] Ordering criterion: pIC50; begin with the maximum. Write the labels in rank order as requested.
[reply] I, II, III, IV
(I: 6.43, II: 6.21, III: 5.70, IV: 5.40)

====

target: proton pump (H+/K+-ATPase) (Sus scrofa, UniProt P19156); construct: Gastric vesicles were prepared from hog stomach via centrifugal separation; assay: Measurement of inhibitory effects on proton pump (H+/K+-ATPase) activities; settings: hog gastric vesicles, K+-specific H+/K+-ATPase activity, Tris-HCl buffer pH 7.4, 37° C. for 40 minutes, malachite green Pi readout
Sequence (P19156 whole entry): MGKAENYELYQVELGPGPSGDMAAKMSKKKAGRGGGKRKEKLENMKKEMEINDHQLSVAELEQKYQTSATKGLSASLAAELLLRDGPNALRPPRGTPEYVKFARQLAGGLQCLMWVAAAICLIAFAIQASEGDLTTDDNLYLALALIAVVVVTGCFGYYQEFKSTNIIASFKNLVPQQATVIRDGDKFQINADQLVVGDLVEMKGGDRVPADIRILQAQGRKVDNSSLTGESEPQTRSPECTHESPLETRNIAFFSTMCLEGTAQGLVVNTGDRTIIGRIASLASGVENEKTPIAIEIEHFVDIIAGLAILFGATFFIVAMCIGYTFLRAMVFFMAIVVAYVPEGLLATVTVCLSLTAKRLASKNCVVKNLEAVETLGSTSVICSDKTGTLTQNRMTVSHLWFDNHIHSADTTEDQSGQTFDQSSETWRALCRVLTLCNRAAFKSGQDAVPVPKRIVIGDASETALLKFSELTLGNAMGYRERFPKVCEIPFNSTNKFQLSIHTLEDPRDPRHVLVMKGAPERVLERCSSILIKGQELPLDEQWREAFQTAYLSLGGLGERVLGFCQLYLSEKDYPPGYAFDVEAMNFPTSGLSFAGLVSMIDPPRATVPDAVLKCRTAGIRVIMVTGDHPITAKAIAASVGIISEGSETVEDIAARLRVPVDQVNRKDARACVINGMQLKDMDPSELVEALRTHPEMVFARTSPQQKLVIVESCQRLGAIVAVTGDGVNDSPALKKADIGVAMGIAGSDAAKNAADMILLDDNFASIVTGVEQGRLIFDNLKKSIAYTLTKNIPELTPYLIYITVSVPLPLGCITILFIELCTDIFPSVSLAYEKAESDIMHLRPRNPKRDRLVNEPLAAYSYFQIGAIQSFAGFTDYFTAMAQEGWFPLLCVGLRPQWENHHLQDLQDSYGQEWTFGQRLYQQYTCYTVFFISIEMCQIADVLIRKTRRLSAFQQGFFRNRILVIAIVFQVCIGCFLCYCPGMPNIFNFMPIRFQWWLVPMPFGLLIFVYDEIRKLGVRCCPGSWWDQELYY
Sequence (P18434 whole entry partner): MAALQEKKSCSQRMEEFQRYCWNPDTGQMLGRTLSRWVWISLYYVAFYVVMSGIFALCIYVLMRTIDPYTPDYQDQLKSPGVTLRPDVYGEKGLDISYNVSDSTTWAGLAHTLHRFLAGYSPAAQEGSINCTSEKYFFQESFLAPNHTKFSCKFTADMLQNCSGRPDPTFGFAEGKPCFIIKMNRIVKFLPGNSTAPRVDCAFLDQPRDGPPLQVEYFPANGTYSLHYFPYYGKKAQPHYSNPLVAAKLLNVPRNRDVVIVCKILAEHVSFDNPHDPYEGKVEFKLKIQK
Structures can show the parent of a compound that is named as a salt.
Measure Name: IC50 (nM)

Use the examples below as a reference point.
- Molecule: "CNCc1cn(S(=O)(=O)c2cccnc2)c2cc(Nc3ccc(C(F)(F)F)nc3Cl)ccc12 [Example 125, hydrochloride]"
  IC50 / nM: 1060
- Molecule: "COc1ccc(Nc2ccc3c(C(=O)N(C)C)cn(S(=O)(=O)c4cccc(C(F)(F)F)c4)c3c2)c(Cl)n1 [Example 321]"
  IC50 / nM: 3350
- Molecule: "CNCc1cn(S(=O)(=O)c2cccnc2)c2cc(Nc3ccc(C(F)(F)F)nc3C)ccc12 [Example 124, hydrochloride]"
  IC50 / nM: 580

1 = CNCc1cn(S(=O)(=O)c2cccnc2)c2cc(Nc3ccc4c(c3)OCCO4)ccc12 [Example 97, hydrochloride]
2 = CNCc1cn(S(=O)(=O)c2cccnc2)c2cc(-c3ccccc3)ccc12 [Example 243]
[ask] When the recorded IC50 values are compared, which is smaller: that of 1 or that of 2 ? Could you answer with the label of the item you picked?
[reply] 1
(1: 670 nM, 2: 7140 nM)

A = CNCc1cn(S(=O)(=O)c2cccnc2)c2cc(Nc3cccc(F)c3)ccc12 [Example 6, hydrochloride]
B = CNCc1cn(S(=O)(=O)c2cccc(C(F)(F)F)c2)c2cc(Nc3ccc(OC)cc3F)ccc12 [Example 188, hydrochloride]
[ask] Pick the one with the larger IC50: A vs B Field: selected label. Fill in the label of the entry you choose.
[reply] A

I = CNCc1cn(S(=O)(=O)c2cccc(OC)c2)c2cc(Cc3ccc(OC)nc3Cl)ccc12 [Example 295]
II = CNCc1cn(S(=O)(=O)c2cccnc2)c2cc(Nc3ccc(C(C)(C)C)cc3)ccc12 [Example 14, hydrochloride]
III = CNCc1cn(S(=O)(=O)c2cccnc2)c2cc(Nc3c(C)cc(C)cc3C)ccc12 [Example 80, hydrochloride]
[ask] Order the entries by their reported IC50, beginning at the minimum. Present the labels in the sequence the task asks for.
[reply] III, I, II
(III: 170 nM, I: 920 nM, II: 1500 nM)
